Assay: Solubility of the Compound in water, biorelevant media (FaSSIF, FeSSIF) and oils
Type: physicochemical
Conditions: FaSSIF; read-out: solubility in Fasted Simulated Intestinal Fluid (FaSSIF)
Readout: solubility (µg/mL)
Give just the numeric value; µg/mL need not be written.

Ask: Give solubility for COc1cc2ncc3c(c2cc1-c1cnn(C)c1)n(-c1ccc(C#N)cc1F)c(=O)n3C
Result: 0.25
